# Test system: Mycobacterium marinum
# ASSAY_PROTOCOL: Infection assay: intracellular M. marinum growth (luminescence) in D. discoideum
# Assay type: cell-based
# TEST_CONTEXT: interpolated between the two concentrations closest to residual growth 0.5, top concentration 100 μM
Listed below: pIC50 values for each entry.
pIC50 here is simply -log10 of the concentration when that concentration is written in mol/L.

Here's what some known entries look like.
Oc1ccc(/C=C/c2cc(O)c3c(c2)O[C@H](c2ccc(O)cc2O)[C@@H]3c2cc(O)cc(O)c2)cc1 (relative stereo) [Compound 2, (+)-Gnetupendin C]
4.18
Oc1ccc(/C=C/c2cc(O)c3c(c2)O[C@H](c2ccc(O)cc2)[C@H]3c2cc(O)c3c(c2)O[C@H](c2ccc(O)cc2)[C@H]3c2cc(O)c3c(c2)O[C@H](c2ccc(O)cc2O)[C@H]3c2cc(O)cc(O)c2)cc1
4.18

Task item: So what's the measured pIC50 for this one? Oc1ccc(/C=C/c2cc(O)c3c(c2)O[C@@H](c2ccc(O)cc2)[C@@H]3c2cc(O)c3c(c2)O[C@@H](c2ccc(O)cc2O)[C@H]3c2cc(O)cc(O)c2)cc1 [Compound 4, (−)-Gnetoline A]
Reply: 4.18

----------
# System: Mycobacterium marinum
# ASSAY_PROTOCOL: Infection assay: intracellular M. marinum growth (luminescence) in D. discoideum
# Format: cell-based
# TEST_CONTEXT: interpolated between the two concentrations closest to residual growth 0.5, top concentration 100 μM
OBSERVABLE: pIC50
pIC50 here is simply -log10 of the concentration when that concentration is written in mol/L.

Oc1ccc(/C=C/c2cc(O)c3c(c2)O[C@H](c2ccc(O)cc2)[C@H]3c2cc(O)c3c(c2)O[C@H](c2ccc(O)cc2)[C@H]3c2cc(O)c3c(c2)O[C@H](c2ccc(O)cc2)[C@H]3c2cc(O)cc(O)c2)cc1 [Compound 8, Gnemonol B]
4.18
Oc1ccc(C=Cc2cc(O)cc3c2C(c2cc(O)cc(O)c2)C(c2ccc(O)c4c2OC(c2ccc(O)cc2O)C4c2cc(O)cc(O)c2)O3)cc1 (single isomer, unassigned; (-)) [Compound 11, (−)-Gnetuhainin M]
4.65
Oc1ccc(/C=C/c2cc(O)c3c(c2)O[C@@H](c2ccc(O)cc2)[C@@H]3c2cc(O)c3c(c2)O[C@H](c2ccc(O)cc2)[C@H]3c2cc(O)cc(O)c2)cc1 [Compound 6, (−)-Gnetin E]
4.18

Turning to the following compound.
Task item: Entry Oc1ccc(/C=C/c2cc(O)c3c(c2)O[C@@H](c2ccc(O)cc2)[C@@H]3c2cc(O)c3c(c2)O[C@H](c2ccc(O)cc2O)[C@H]3c2cc(O)cc(O)c2)cc1 [Compound 5, (−)-Latifolol] , system Mycobacterium marinum: what pIC50 was measured?
Reply: 4.18

----------
# Tested on: Mycobacterium marinum
# ASSAY_PROTOCOL: Infection assay: intracellular M. marinum growth (luminescence) in D. discoideum
# Format: cell-based
# TEST_CONTEXT: 72 h, conc 11.11111111 uM, vehicle control set at 1, read-out: mean normalized residual growth, Mm in infection
OBSERVABLE: activity at 11.1111 µM (%)
Respond with the bare value in %.

Oc1ccc(/C=C/c2cc(O)c3c(c2)O[C@@H](c2ccc(O)cc2)[C@@H]3c2cc(O)c3c(c2)O[C@H](c2ccc(O)cc2O)[C@H]3c2cc(O)cc(O)c2)cc1 [Compound 5, (−)-Latifolol]
136
Oc1cc(O)cc([C@H]2c3c(O)cc(/C=C/c4ccc(O)cc4O)cc3O[C@@H]2c2ccc(O)cc2O)c1 (relative stereo) [Compound 10, (−)-Gnetumontanin A]
145
Oc1ccc(/C=C/c2cc(O)c3c(c2)O[C@@H](c2ccc(O)cc2)[C@@H]3c2cc(O)c3c(c2)O[C@@H](c2ccc(O)cc2O)[C@H]3c2cc(O)cc(O)c2)cc1 [Compound 4, (−)-Gnetoline A]
139
Oc1ccc([C@@H]2Oc3cc(O)ccc3[C@H]3[C@H](c4cc(O)cc(O)c4)c4c(O)cc(O)cc4[C@H]32)cc1 [Compound 9, (−)-Gnemontanin G]
58.4
Oc1ccc(C=Cc2cc(O)cc3c2C(c2cc(O)cc(O)c2)C(c2ccc(O)c4c2OC(c2ccc(O)cc2O)C4c2cc(O)cc(O)c2)O3)cc1 (single isomer, unassigned; (-)) [Compound 11, (−)-Gnetuhainin M]
135

Turning to the following compound.
Task item: So what's the measured activity at 11.1111 µM for this one? Oc1ccc(/C=C/c2cc(O)c3c(c2)O[C@H](c2ccc(O)cc2O)[C@@H]3c2cc(O)cc(O)c2)cc1 (relative stereo) [Compound 2, (+)-Gnetupendin C]
Reply: 167

----------
# Tested on: Dictyostelium discoideum
# ASSAY_PROTOCOL: Infection assay: growth of the host amoeba D. discoideum (fluorescence) in infection
# Format: cell-based
# TEST_CONTEXT: 72 h, read-out: median normalized residual growth, Dd in infection
OBSERVABLE: activity at 0.411523 µM (%)
Respond with the bare value in %.

Here's what some known entries look like.
Oc1ccc(/C=C/c2cc(O)c3c(c2)O[C@@H](c2ccc(O)cc2)[C@@H]3c2cc(O)c3c(c2)O[C@H](c2ccc(O)cc2)[C@H]3c2cc(O)cc(O)c2)cc1 [Compound 6, (−)-Gnetin E]
93.6
Oc1ccc(C=Cc2cc(O)cc3c2C(c2cc(O)cc(O)c2)C(c2ccc(O)c4c2OC(c2ccc(O)cc2O)C4c2cc(O)cc(O)c2)O3)cc1 (single isomer, unassigned; (-)) [Compound 11, (−)-Gnetuhainin M]
87.9
Oc1ccc(/C=C/c2cc(O)c3c(c2)O[C@H](c2ccc(O)cc2)[C@H]3c2cc(O)c3c(c2)O[C@H](c2ccc(O)cc2)[C@H]3c2cc(O)c3c(c2)O[C@H](c2ccc(O)cc2O)[C@H]3c2cc(O)cc(O)c2)cc1
91.3
Oc1ccc(/C=C/c2cc(O)c3c(c2)O[C@H](c2ccc(O)cc2)[C@H]3c2cc(O)c3c(c2)O[C@H](c2ccc(O)cc2)[C@H]3c2cc(O)c3c(c2)O[C@H](c2ccc(O)cc2)[C@H]3c2cc(O)cc(O)c2)cc1
92.7
Oc1cc(O)cc([C@H]2c3c(O)cc(/C=C/c4ccc(O)cc4O)cc3O[C@@H]2c2ccc(O)cc2O)c1 (relative stereo) [Compound 10, (−)-Gnetumontanin A]
102

Turning to the following compound.
Task item: So what's the measured activity at 0.411523 µM for this one? Oc1ccc([C@@H]2Oc3cc(O)ccc3[C@H]3[C@H](c4cc(O)cc(O)c4)c4c(O)cc(O)cc4[C@H]32)cc1 [Compound 9, (−)-Gnemontanin G]
Reply: 95.8

----------
Listed below: activity at 33.3333 µM values for each entry.
# Tested on: Mycobacterium marinum
# ASSAY_PROTOCOL: Anti-biotic assay: M. marinum growth in broth (luminescence)
# Type: cell-based
# TEST_CONTEXT: 72 h, read-out: median (normalised M. marinum growth, Mm in broth)
# Method: Since fractions were not weighed individually, the injection mass was used to calculate an average mass per fraction and thus a nominal mass concentration. Plating bacteria and compounds or fractions was performed analogously to the infection assay described above. Bacteria growth was monitored with the Agilent BioTek H1 plate reader by recording luminescence at 32 °C. The prepared plates were sealed and stored at 4 °C overnight. […]

Here's what some known entries look like.
Oc1ccc(/C=C/c2cc(O)c3c(c2)O[C@@H](c2ccc(O)cc2)[C@@H]3c2cc(O)c3c(c2)O[C@H](c2ccc(O)cc2O)[C@H]3c2cc(O)cc(O)c2)cc1 [Compound 5, (−)-Latifolol]
102%
Oc1ccc(/C=C/c2cc(O)c3c(c2)O[C@H](c2ccc(O)cc2O)[C@@H]3c2cc(O)cc(O)c2)cc1 (relative stereo) [Compound 2, (+)-Gnetupendin C]
109%
Oc1ccc(/C=C/c2cc(O)c3c(c2)O[C@@H](c2ccc(O)cc2)[C@@H]3c2cc(O)c3c(c2)O[C@@H](c2ccc(O)cc2O)[C@H]3c2cc(O)cc(O)c2)cc1 [Compound 4, (−)-Gnetoline A]
108%
Oc1ccc([C@@H]2Oc3cc(O)ccc3[C@H]3[C@H](c4cc(O)cc(O)c4)c4c(O)cc(O)cc4[C@H]32)cc1 [Compound 9, (−)-Gnemontanin G]
87.9%

Task item: So what's the measured activity at 33.3333 µM for this one? Oc1cc(O)cc([C@H]2c3c(O)cc(/C=C/c4ccc(O)cc4O)cc3O[C@@H]2c2ccc(O)cc2O)c1 (relative stereo) [Compound 10, (−)-Gnetumontanin A]
Reply: 97.6%

----------
Listed below: activity at 1.23457 µM values for each entry.
# Test system: Mycobacterium marinum
# ASSAY_PROTOCOL: Infection assay: intracellular M. marinum growth (luminescence) in D. discoideum
# Format: cell-based
# TEST_CONTEXT: 72 h, conc 1.234567901 uM, vehicle control set at 1, read-out: median normalized residual growth, Mm in infection
# Text: Since fractions were not weighed individually, the injection mass was used to calculate an average mass per fraction and thus a nominal mass concentration.
Respond with the bare value in %.

Here's what some known entries look like.
Oc1ccc(/C=C/c2cc(O)c3c(c2)O[C@H](c2ccc(O)cc2)[C@H]3c2cc(O)c3c(c2)O[C@H](c2ccc(O)cc2)[C@H]3c2cc(O)c3c(c2)O[C@H](c2ccc(O)cc2)[C@H]3c2cc(O)cc(O)c2)cc1 [Compound 8, Gnemonol B]
94.6
Oc1ccc(/C=C/c2cc(O)c3c(c2)O[C@H](c2ccc(O)cc2O)[C@@H]3c2cc(O)cc(O)c2)cc1 (relative stereo) [Compound 2, (+)-Gnetupendin C]
143

Task item: So what's the measured activity at 1.23457 µM for this one? Oc1ccc(/C=C/c2cc(O)c3c(c2)O[C@@H](c2ccc(O)cc2)[C@@H]3c2cc(O)c3c(c2)O[C@H](c2ccc(O)cc2)[C@H]3c2cc(O)cc(O)c2)cc1 [Compound 6, (−)-Gnetin E]
Reply: 184
